meta.source: patent US11667697

# testTarget: T1, VACV L1 protein (vaccinia virus, UniProt P07612 1-185)
# T1 sequence: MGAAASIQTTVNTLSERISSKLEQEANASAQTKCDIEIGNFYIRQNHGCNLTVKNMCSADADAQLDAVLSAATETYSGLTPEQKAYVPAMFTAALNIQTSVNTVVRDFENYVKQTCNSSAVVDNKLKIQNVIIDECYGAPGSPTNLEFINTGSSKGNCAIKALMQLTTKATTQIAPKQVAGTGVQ
# testDescription: purified antigen ELISA

# binder, unit, EC50
records = [
    ("VACV-33 (antibody, V domains shown, human IgG1, anti-L1) VH: QLQLQESGPGLVKPSETLSLTCTVSGGSISSGGYYWGWIRQPPGKGLEWIASIYYSGSTYYNPSLKSRVTISVDTSKTQFSLKLSSVTAADTAVYYCARQSSSTGGFHYWGQGTLVTVSS VL: QSVLTQPPSVSGAPGQRVTISCTGSSSNIGAGYDVHWYQHLPGTAPKLLIYGNSNRPSGVPDRFSGSKSGTSASLAITGLQAEDEANYYCQSYDSSLSGREVFGGGTQLTVL", "mg/L", 0.02),
    ("VACV-34 (antibody, V domains shown, human IgG1, anti-L1) VH: QVQLVESGGGLVQPGRSLRLSCAASGFTFDDYAMHWVRQAPGKGLEWVSGLSWNSGSIGYADSVKGRFTISRDNAKNSLYLQMNSLRAEDTALYYCAKETEKYYYDSSGYDYWGQGTLVTVSS VL: EIVLTQSPGTLSLSPGERATLSCRASQSVSSIYLAWYQQKPGQAPRLLIYGASSRATGIPDRFSGSGSGTDFTLTISRLEPEDFAVYYCQQYGSRGTFGQGTKLEIK", "mg/L", 0.04),
    ("MPXV-26 (antibody, V domains shown, human IgG1, anti-L1) VH: QVQLVQSGGGLIQPGGSLRLSCVVSGFNVATNYMSWVRQAPGKGLEWVSVIYSGGSTYYADSVKGRFTISRDNSKNTVFLQMNSLRPEDTAAYYCAKGGGLGLDYWGQGTLVTVSS VL: QSALTQPPSASGSPGQSVTITCTGSSSDVGGYNYVSWYQQHPGKAPKVVIYEVNKRPSGVPHRFSGSKSGNTASLTVSGLQAEDEADYYCSSYAGTETVAFGGGTKLTVL", "mg/L", 0.05),
    ("MPXV-87 (antibody, V domains shown, human IgG1, anti-L1) V domain 1: QVQLVQSGAEVKKPGASVKVSCKASGYTFTSHGIIWVRQAPGQGLEWMGWISVYNDNTNSAQKFQDRVTMTTATSTSTAYMELRSLRSDDTAVYYCARSSSGPRYYYYGMDVWGQGTTSP V domain 2: QSVVTQPPSVSGAPGQRVTISCTGSSSNIGAGYAVHWYYQLPGIAPKLLIFGNNNRPSGVPDRFSGSKSGTSASLAITGLQAEDEADYYCQSYDSSLSGWVFGGGTQVTVL", "mg/L", 0.3),
]
